Biological target: ADAR1p110 (Homo sapiens, UniProt P55265)
Construct: HAT (N); FLAG (alternative preparation, not on the same molecule as HAT) (N); made in house; host or cells: Sf9 insect cells, baculovirus
Sequence (P55265 296-1226): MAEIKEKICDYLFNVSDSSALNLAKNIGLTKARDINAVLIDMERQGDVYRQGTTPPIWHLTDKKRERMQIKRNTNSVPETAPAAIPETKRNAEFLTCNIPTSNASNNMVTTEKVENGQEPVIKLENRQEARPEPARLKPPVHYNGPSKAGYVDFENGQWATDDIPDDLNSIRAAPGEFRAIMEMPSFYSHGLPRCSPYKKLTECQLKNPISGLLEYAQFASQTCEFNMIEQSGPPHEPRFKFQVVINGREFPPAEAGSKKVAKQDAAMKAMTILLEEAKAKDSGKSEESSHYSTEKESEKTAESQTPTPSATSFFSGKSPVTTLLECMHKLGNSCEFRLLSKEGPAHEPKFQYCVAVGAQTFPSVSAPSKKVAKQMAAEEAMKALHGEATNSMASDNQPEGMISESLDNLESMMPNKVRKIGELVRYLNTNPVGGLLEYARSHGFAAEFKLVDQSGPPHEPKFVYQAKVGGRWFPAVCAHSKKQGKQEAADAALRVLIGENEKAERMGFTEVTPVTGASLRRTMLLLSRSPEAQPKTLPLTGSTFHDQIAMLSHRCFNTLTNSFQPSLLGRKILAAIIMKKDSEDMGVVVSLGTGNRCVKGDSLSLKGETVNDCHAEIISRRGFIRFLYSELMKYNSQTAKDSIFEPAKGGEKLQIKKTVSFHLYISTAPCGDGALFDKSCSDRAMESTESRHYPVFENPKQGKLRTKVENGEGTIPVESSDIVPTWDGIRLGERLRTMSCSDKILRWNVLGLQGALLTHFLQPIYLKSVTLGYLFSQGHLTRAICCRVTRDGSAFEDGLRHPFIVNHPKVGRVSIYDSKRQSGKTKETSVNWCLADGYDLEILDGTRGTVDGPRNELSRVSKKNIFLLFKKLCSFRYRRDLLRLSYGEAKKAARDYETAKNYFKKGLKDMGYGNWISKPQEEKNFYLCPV
Test: in vitro editing assay with recombinant ADAR1p110 and dsRNA or DNA:RNA substrates
Assay type: biochemical
Conditions: mismatched dsRNA substrate, adenosine position 5; read-out: IC50 estimated by in vitro editing assay, RNA:mmRNA, Position 5
pIC50: −log10 of the molar value.
quantity.measured: pIC50

INSERT INTO assay_data (entry_smiles, endpoint_result) VALUES
  ('N#Cc1ccc(NC(=O)c2sc3ccccc3c2Cl)cc1', 5.09);
